Consider the following binders; for each one, report its in vitro Activity Compared to Native Peptide (%), vs Glucagon.
assayed-target: human GCG receptor (human, UniProt P47871 26-477)
Sequence (P47871 26-477): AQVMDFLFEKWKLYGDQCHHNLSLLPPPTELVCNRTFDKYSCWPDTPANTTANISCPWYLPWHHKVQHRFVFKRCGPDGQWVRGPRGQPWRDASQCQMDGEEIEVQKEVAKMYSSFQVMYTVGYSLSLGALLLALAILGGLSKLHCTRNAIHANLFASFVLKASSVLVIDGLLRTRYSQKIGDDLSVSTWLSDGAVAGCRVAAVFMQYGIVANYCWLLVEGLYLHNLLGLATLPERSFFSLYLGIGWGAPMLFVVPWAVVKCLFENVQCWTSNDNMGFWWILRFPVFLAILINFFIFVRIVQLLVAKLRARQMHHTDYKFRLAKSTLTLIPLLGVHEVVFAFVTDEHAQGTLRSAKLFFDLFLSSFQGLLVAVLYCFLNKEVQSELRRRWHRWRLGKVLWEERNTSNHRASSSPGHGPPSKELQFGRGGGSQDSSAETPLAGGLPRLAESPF
measurement-description: cell-based or functional assay
Bridges are numbered along the chain shown (N, C = ends). Where no end group is shown, it is not given here. [ ]: non-standard residue; d: D form. The star is where a group is joined. Acetyl(2-(4-imidazolyl)) = O=C(Cc1c[nH]cn1)*; Aib = CC(C)(N)C(=O)O
Answers are plain numbers, in %.

Past entries and their recorded results:
>>> result("[Acetyl(2-(4-imidazolyl))][Aib]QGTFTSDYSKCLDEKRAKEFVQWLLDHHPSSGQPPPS (bridge 16-20; not fully specified (C-terminus)) [triple agonist of SEQ ID NO: 74]")
0.9
>>> result("H[Aib]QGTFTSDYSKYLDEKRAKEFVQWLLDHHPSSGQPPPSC-NH2 (bridge 16-20) [triple agonist of SEQ ID NO: 50]")
50.5
>>> result("Y[Aib]QGTFTSDYSKYLDEKRAKEFVQWLLDHHCSSGQPPPS-NH2 (bridge 16-20) [triple agonist of SEQ ID NO: 43]")
88.4
>>> result("Y[Aib]QGTFTSDYSKYLDECAAKDFVQWLLDHHPSSGQPPPS (bridge 16-20; not fully specified (C-terminus)) [triple agonist of SEQ ID NO: 67]")
46.2
>>> result("H[Aib]QGTFTSDYSKYLDEKACKEFVQWLLAQ (bridge 16-20; not fully specified (C-terminus)) [triple agonist of SEQ ID NO: 31]")
2.2

Take each entry in turn and give its in vitro Activity Compared to Native Peptide (%), vs Glucagon.
1. H[Aib]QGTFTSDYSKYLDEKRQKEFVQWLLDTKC (bridge 16-20; not fully specified (C-terminus)) [triple agonist of SEQ ID NO: 78]
2. H[Aib]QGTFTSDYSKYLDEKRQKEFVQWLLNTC (bridge 16-20; not fully specified (C-terminus)) [triple agonist of SEQ ID NO: 51]

Result:
1: 14; 2: 2

Take each entry in turn and give its in vitro Activity Compared to Native Peptide (%), vs Glucagon.
1. H[Aib]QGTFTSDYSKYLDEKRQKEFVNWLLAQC (bridge 16-20; not fully specified (C-terminus)) [triple agonist of SEQ ID NO: 56]
2. Y[Aib]QGTFTSDYSKYLDECAAKEFVQWLLDHHPSSGQPPPS (bridge 16-20; not fully specified (C-terminus)) [triple agonist of SEQ ID NO: 64]

Result:
[4.9, 60.1]
